measurementTarget: β-amyloid (1-42) (Aβ42) (Homo sapiens)
Construct: purchased AnaSpec Inc
Sequence (P05067 672-713 limits assumed): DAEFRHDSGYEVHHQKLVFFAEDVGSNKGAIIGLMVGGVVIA
methodDescription: Inhibition of Aβ42 self-aggregation, thioflavin T fluorescence method
Format: biochemical
conditionDetails: Aβ42 50 µM, compound 100 µM, 24 h, 37°C; mean ± SEM, n = 3
Binary call on inhibition at 100 µM: YES from 20% upward, NO beneath that.

Solved cases below.
structureString: O=P(CCc1ccccc1)(CCc1ccccc1)C1c2ccccc2Nc2ccccc21
className: YES
--
structureString: O=P(OCc1ccccc1)(OCc1ccccc1)C1c2ccccc2Nc2ccccc21
className: YES
--
structureString: O=P(CCc1ccc(Cl)cc1)(CCc1ccc(Cl)cc1)C1c2ccccc2Nc2ccccc21
className: YES

# input Is it the case that O=P(Oc1ccccc1)(Oc1ccccc1)c1c2ccccc2nc2ccccc12 has inhibition at 100 µM reaching or exceeding 20%?
# output NO

# input Is reported inhibition at 100 µM greater than or equal to 20% here: O=P(CCc1ccc(Cl)cc1)(CCc1ccc(Cl)cc1)c1c2ccccc2nc2ccccc12
# output NO

# input Test whether the molecule CCOP(=O)(OCC)C1c2ccccc2Nc2ccccc21 records inhibition at 100 µM of 20% or higher.
# output NO
